# SYSTEM_NAME: Human recombinant MKlp2 motor domain1-519, His tagged (Homo sapiens)
# Construct: Human recombinant MKlp2 motor domain1-519, His tagged; His; purchased Cytoskeleton MP05
# TEST: Microtubule stimulated ATPase activity of the MKlp2 motor domain (Kinesin ELIPA Assay Kit)
# Format: biochemical
# RUN_PARAMETERS: Table 3, 22° C., read-out: MKIp2 IC50
pIC50: −log10 of the molar value.
READOUT_LABEL: pIC50

See these solved cases before continuing.
* CN(C)CCSc1ccncc1/C=C(\C#N)c1c[nH]c2ccc(Br)cc12 [Example 36] | 6.52
* N#C/C(=C\c1cnccc1Sc1ccc(F)cc1)c1c[nH]c2ccc(Cl)cc12 [Example 27] | 6.52
* N#C/C(=C\c1cnccc1SCc1ccccc1)c1c[nH]c2ccc(Br)cc12 [Example 20] | 6.70
* N#C/C(=C\c1cnccc1Oc1ccccc1)c1c[nH]c2ccc(Cl)cc12 [Example 10] | 6.52
* CCSc1ccc(C#N)cc1/C=C(\C#N)c1c[nH]c2ccc(Cl)cc12 [Example 42] | 6.22

P: N#C/C(=C\c1cnccc1-c1ccc(C(F)(F)F)cc1)c1c[nH]c2ccc(Br)cc12 [Example 25]
Q: N#C/C(=C\c1cc(C#N)ccc1Oc1ccc(F)cc1)c1c[nH]c2ccc(Br)cc12 [Example 37]
R: CCOc1ccncc1/C=C(\C#N)c1c[nH]c2ccc(Br)cc12 [Example 13]
Task: Descending sort on pIC50 required. Thanks in advance for listing the labels in the requested order.
Output: R, P, Q

a: N#C/C(=C\c1cnccc1Sc1ccccn1)c1c[nH]c2ccc(Cl)cc12 [Example 30]
b: N#C/C(=C\c1cnccc1Cl)c1c[nH]c2ccc(Cl)cc12 [Example 3]
Task: Between the entries labelled a and b , which has a larger pIC50 value on record? Select an item and report its label.
Output: a

1: COc1ccncc1/C=C(\C#N)c1c[nH]c2cc(Cl)ccc12 [Example 47]
2: COc1ccc2c(/C(C#N)=C/c3cc(C#N)ccc3OC)c[nH]c2c1 [Example 54]
3: CN(C)c1ccncc1/C=C(\C#N)c1c[nH]c2ccc(Br)cc12 [Example 8]
4: N#C/C(=C\c1cnccc1Oc1ccc(F)cc1)c1c[nH]c2ccc(Cl)cc12 [Example 23]
Task: // ranking: key=pIC50, reverse=True Write the labels out in the order the request specifies.
Output: 4, 1, 3, 2

---

# SYSTEM_NAME: Human recombinant MKlp2 motor domain1-519, His tagged (Homo sapiens)
# Construct: Human recombinant MKlp2 motor domain1-519, His tagged; His; purchased Cytoskeleton MP05
# Sequence (O95235 1-519): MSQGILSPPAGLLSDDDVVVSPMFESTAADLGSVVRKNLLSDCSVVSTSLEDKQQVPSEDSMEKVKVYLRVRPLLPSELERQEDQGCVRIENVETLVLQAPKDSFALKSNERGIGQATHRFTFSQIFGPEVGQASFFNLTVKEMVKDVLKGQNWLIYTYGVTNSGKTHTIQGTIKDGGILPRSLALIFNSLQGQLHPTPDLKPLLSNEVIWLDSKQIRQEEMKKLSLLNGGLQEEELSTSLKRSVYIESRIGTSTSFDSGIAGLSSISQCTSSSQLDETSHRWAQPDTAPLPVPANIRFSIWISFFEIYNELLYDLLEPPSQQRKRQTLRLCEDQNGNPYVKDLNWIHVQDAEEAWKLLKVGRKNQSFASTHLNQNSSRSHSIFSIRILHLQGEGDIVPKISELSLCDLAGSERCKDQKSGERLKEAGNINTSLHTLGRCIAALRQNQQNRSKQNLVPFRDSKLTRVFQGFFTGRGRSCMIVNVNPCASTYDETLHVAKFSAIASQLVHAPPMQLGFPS
# TEST: Microtubule stimulated ATPase activity of the MKlp2 motor domain (Kinesin ELIPA Assay Kit)
# Type: biochemical
# RUN_PARAMETERS: Table 6 (prodrugs, formula II), read-out: MKIp2 IC50
Structures can show the parent of a compound that is named as a salt.
READOUT_LABEL: IC50 (µM)

// worked examples, IC50 included
* COc1ccc(C#N)cc1/C=C(\C#N)c1cn(C(=O)CC(N)C(=O)OCc2ccccc2)c2ccc(Br)cc12 (stereo in doubt) [Example 67] | 3.1
* COc1ccc(C#N)cc1/C=C(\C#N)c1cn(C(=O)CC(NC(=O)OC(C)(C)C)C(=O)OCc2ccccc2)c2ccc(Br)cc12 (stereo in doubt) [Example 65] | 10.1
* COc1ccc(C#N)cc1/C=C(\C#N)c1cn(C(C)=O)c2ccc(Br)cc12 [Example 56] | 16.7
* COc1ccc(C#N)cc1/C=C(\C#N)c1cn(C(=O)[C@H](N)CCCCN)c2ccc(Br)cc12 [Example 76, dihydrochloride] | 1.3
* COc1ccc(C#N)cc1/C=C(\C#N)c1cn(C(=O)CN(C)C)c2ccc(Br)cc12 [Example 63] | 10.6

I: COc1ccncc1/C=C(\C#N)c1cn(C(C)=O)c2ccc(Br)cc12 [Example 55]
II: COc1ccc(C#N)cc1/C=C(\C#N)c1cn(C(=O)CN)c2ccc(Br)cc12 [Example 71, hydrochloride]
III: COc1ccc(C#N)cc1/C=C(\C#N)c1cn(C(=O)C(C)(C)C)c2ccc(Br)cc12 [Example 58]
Task: Could you please sort these 3 entries by IC50 from high to low? Submit the labels in the order that the ranking request calls for.
Output: I, III, II

a: COc1ccncc1/C=C(\C#N)c1cn(C(=O)C(C)(C)C)c2ccc(Br)cc12 [Example 57]
b: COc1ccc(C#N)cc1/C=C(\C#N)c1cn(C(=O)C2CCC(=O)N2)c2ccc(Br)cc12 (stereo not drawn) [Example 75]
Task: Of a and b , which one carries the higher reported IC50? // output: label of the selected item
Output: a
